# SYSTEM: human TLR8 (Homo sapiens, UniProt Q9NR97)
# Construct: host or cells: HEK-293, then stably transfected with pNiFty2(NF-kappaB)-luciferase reporter
# Sequence (Q9NR97 27-1041): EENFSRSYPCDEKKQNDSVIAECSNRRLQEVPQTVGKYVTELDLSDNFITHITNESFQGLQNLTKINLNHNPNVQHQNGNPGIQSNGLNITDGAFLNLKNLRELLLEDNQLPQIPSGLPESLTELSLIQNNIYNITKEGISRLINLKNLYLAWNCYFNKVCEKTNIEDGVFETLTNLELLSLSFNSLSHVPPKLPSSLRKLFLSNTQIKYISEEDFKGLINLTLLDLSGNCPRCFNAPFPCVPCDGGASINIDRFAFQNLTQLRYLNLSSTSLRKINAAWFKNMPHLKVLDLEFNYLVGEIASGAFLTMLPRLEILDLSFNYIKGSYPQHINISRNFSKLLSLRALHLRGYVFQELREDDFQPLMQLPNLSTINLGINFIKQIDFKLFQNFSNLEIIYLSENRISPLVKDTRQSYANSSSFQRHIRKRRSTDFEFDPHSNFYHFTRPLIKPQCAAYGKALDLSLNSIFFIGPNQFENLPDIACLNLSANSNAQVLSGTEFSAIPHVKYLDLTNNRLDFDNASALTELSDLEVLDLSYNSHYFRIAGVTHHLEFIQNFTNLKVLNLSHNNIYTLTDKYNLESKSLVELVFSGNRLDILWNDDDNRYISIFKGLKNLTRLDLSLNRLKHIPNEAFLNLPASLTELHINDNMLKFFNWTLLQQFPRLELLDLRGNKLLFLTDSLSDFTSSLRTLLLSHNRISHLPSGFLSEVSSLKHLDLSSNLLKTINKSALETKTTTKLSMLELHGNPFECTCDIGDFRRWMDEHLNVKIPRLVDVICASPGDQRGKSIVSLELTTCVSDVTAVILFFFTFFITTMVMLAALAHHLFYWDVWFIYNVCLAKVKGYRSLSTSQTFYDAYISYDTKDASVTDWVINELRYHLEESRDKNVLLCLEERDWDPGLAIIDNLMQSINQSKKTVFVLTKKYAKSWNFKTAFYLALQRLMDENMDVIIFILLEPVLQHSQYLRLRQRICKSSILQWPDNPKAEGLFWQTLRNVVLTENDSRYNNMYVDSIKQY
# PROTOCOL_NOTES: HEK-293 human TLR8 NF-kappaB luciferase reporter assay (CL097)
# Type: cell-based
# DETAILS: HEK-293 assay format; read-out: HEK/hTLR8 IC50
MEASUREMENT_LABEL: pIC50
Scale: negative log10 of molar concentration, which is what pIC50 denotes.

Sample records with pIC50:
C[C@@H]1CN(c2ccc(C#N)c3ncccc23)C[C@H](CN2CC[C@H](O)C2)O1 [ER-886820] = 7.11
C[C@@H]1CN(C[C@H]2CN(c3ccc(C#N)c4ncccc34)C[C@@H](C)O2)[C@H](C)CN1 [ER-887271] = 8.80
CC1CN(c2ccc(C#N)c3ncccc23)CC(C(O)CCc2ccccc2)O1 (single isomer, unassigned) [ER-886567] = 8.30
CCCN1CCN(C[C@H]2CN(c3ccc(C#N)c4ncccc34)C[C@@H](C)O2)CC1 [ER-887724] = 8.22
C[C@@H]1CN(c2ccc(C#N)c3ncccc23)C[C@H](CNc2ncccc2-c2ccccc2)O1 [ER-887540] = 8.52
C[C@@H]1CN(c2ccc(C#N)c3ncccc23)C[C@H](CNc2ccnc(-c3ccccc3)c2)O1 [ER-887588] = 9.30

Form field pIC50, entry C[C@@H]1CN(c2ccc(C#N)c3ncccc23)C[C@H](CN2CC[C@@H](c3ccccc3)C2)O1 [ER-886818] : 7.09

Note to self: pIC50 recorded for C[C@H]1CN(c2ccc(C#N)c3ncccc23)C[C@H](C)O1 [ER-880191] was 8.00
